Biological target: urokinase plasminogen activator (uPA) (UniProt P00749 21-431, limits assumed); further: test concentration or dose not given here
Experiment: cell-based or functional assay
MEASURE: % Inhibition (%)
Number in %, nothing else.

Previously resolved entries follow.
AATC11 (other, human, mature) HHHHHHEDPQGDAAQKTDTSHHDQDHPTFNKITPNLAEFAFSLYRQLAHQSNSTNIFFSPVSIATAFAMLSLGTKADTHDEILEGLNFNLTEIPEAQIHEGFQELLRTLNQPDSQLQLTTGNGLFLSEGLKLVDKFLEDVKKLYHSEAFTVNFGDTEEAKKQINDYVEKGTQGKIVDLVKELDRDTVFALVNYIFFKGKWERPFEVKDTEEEDFHVDQVTTVKVPMMKRLGMFNIQHCKKLSSWVLLMKYLGNATAIFFLPDEGKLQHLENELTHDIITKFLENEDRRSASLHLPKLSITGTYDLKSVLGQLGITKVFSNGADLSGVTEEAPLKLSKAVHKAVLTIDEKGTEAAGAMFLEAIPRQTNPEVKFNKPFVFLMIEQNTKSPLFMGKVVNPTQK    0
AATG1g (other, human, mature) HHHHHHEDPQGDAAQKTDTSHHDQDHPTFNKITPNLAEFAFSLYRQLAHQSNSTNIFFSPVSIATAFAMLSLGTKADTHDEILEGLNFNLTEIPEAQIHEGFQELLRTLNQPDSQLQLTTGNGLFLSEGLKLVDKFLEDVKKLYHSEAFTVNFGDTEEAKKQINDYVEKGTQGKIVDLVKELDRDTVFALVNYIFFKGKWERPFEVKDTEEEDFHVDQVTTVKVPMMKRLGMFNIQHCKKLSSWVLLMKYLGNATAIFFLPDEGKLQHLENELTHDIITKFLENEDRRSASLHLPKLSITGTYDLKSVLGQLGITKVFSNGADLSGVTEEAPLKLSKAVHKAVLTIDEKGTEAAGAMFLEGSLRGIPPEVKFNKPFVFLMIEQNTKSPLFMGKVVNPTQK    0
AATG1 (other, human, mature) HHHHHHEDPQGDAAQKTDTSHHDQDHPTFNKITPNLAEFAFSLYRQLAHQSNSTNIFFSPVSIATAFAMLSLGTKADTHDEILEGLNFNLTEIPEAQIHEGFQELLRTLNQPDSQLQLTTGNGLFLSEGLKLVDKFLEDVKKLYHSEAFTVNFGDTEEAKKQINDYVEKGTQGKIVDLVKELDRDTVFALVNYIFFKGKWERPFEVKDTEEEDFHVDQVTTVKVPMMKRLGMFNIQHCKKLSSWVLLMKYLGNATAIFFLPDEGKLQHLENELTHDIITKFLENEDRRSASLHLPKLSITGTYDLKSVLGQLGITKVFSNGADLSGVTEEAPLKLSKAVHKAVLTIDEKGTEAAGAMFLEGSLRSIPPEVKFNKPFVFLMIEQNTKSPLFMGKVVNPTQK    17

// AATG9 (other, human, mature; also called rAATG9) HHHHHHEDPQGDAAQKTDTSHHDQDHPTFNKITPNLAEFAFSLYRQLAHQSNSTNIFFSPVSIATAFAMLSLGTKADTHDEILEGLNFNLTEIPEAQIHEGFQELLRTLNQPDSQLQLTTGNGLFLSEGLKLVDKFLEDVKKLYHSEAFTVNFGDTEEAKKQINDYVEKGTQGKIVDLVKELDRDTVFALVNYIFFKGKWERPFEVKDTEEEDFHVDQVTTVKVPMMKRLGMFNIQHCKKLSSWVLLMKYLGNATAIFFLPDEGKLQHLENELTHDIITKFLENEDRRSASLHLPKLSITGTYDLKSVLGQLGITKVFSNGADLSGVTEEAPLKLSKAVHKAVLTIDEKGTEAAGAMFLETVDYAIPPEVKFNKPFVFLMIEQNTKSPLFMGKVVNPTQK : % Inhibition value = 0
